meta.source: paper PMC9788556

# testedSystem: T1, Pfs230 D1D2 (aa 587–889) (Plasmodium falciparum, UniProt P68874 587-889)
# T1 chain: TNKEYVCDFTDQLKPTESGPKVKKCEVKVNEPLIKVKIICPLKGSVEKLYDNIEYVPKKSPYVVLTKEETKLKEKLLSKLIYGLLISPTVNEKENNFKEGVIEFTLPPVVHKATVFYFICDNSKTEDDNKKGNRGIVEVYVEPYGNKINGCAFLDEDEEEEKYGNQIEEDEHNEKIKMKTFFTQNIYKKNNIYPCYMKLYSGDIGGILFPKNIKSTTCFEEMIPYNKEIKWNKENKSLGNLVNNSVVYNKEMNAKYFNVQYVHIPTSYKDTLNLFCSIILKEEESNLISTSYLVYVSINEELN
# assayNotes: BLI
attributeMeasured: koff (s⁻¹)
Report the value in s⁻¹ with no unit label.

binder	koff (s⁻¹)
nanobody D11 (VHH) VHH: QVQLQESGGGLVQAGSSLRLSCAASGRTFSSYAMGWFRQAPGKEREFVAAIGWSGGTYYTDSVEGRFTISRDNAENTVYLQMNSLKPEDTAVYYCAAKASGSSWSERGYDYWGQGTQVTVSS	0.00262
nanobody A11 (VHH) VHH: QVQLQESGGGLVQPGESLRLSCAASGRTSSSYAMGWFRQAPGKEREFVASISWSGGSTYYADSVKGRFTLSRDNAKNTVYLQMNSLKPEDTAVYYCAADGIFYSDYPLSVDDFHSWGQGTQVTVSS	0.000152
nanobody E11 (VHH) VHH: QVQLQESGGGLVQPGGSLRLSCAASGFTSDYYGIGWFRQAPGKEREGVACISSSDGSTYYADSVKGRSTISRDNAKNTVYLQMNSLKPEDTAVYYCAADLSGIGCTTAQAMDVIGDFGDFGSWGQGTQVTVSS	0.000733
nanobody F5 (VHH) VHH: QVQLQESGGGLVQPGGSLRLSCAASGFTLDRYAIGWFRQAPGKEREGVSCISSSDGSTYYADSVKGRFTISRDNAKNTVYLQMNSLKPEDTAVYYCARDHGPCTVLADILYDYGMDYWGKGTQVTVSS	0.000313

# lookup: koff of nanobody G5 (VHH) VHH: QVQLQESGGGLVQAGGSLRLSCAASGRTFNDYAMYWFRQAPGKEREFVADITWSGSSTYYADSVKGRFTISRDNAKNTVFLQMNSLKPEDTALYYCAADSRYYGIGIGTPRYWGQGTQVTVSS
0.000579

# lookup: koff of nanobody A10 (VHH) VHH: QVQLQESGGGLVQAGSSLRLSCAASGGTFSNYAMGWFRQAPGKEREFVAAIGWSGGTYYTDSVEGRFTISRDNAKNTVYLQMNSLKPEDTAVYYCAAKRSGSSWSERGYDYWGQGTQVTVSS
0.000805

# lookup: koff of nanobody F10 (VHH) VHH: QVQLQESGGGLVQAGGSLRLSCAASGRTFSDYFMGWFRQAPGKEREFVAAVSWSGGSTYYADSVKGRFTISRDNAKNTVFLQMNSLKPEDTAVYYCAGGGSYYPMSPYDGMDYWGKGTQVTVSS
8.19e-05
